koff values, listed per item
Biological target: T1, human Protein S (human, UniProt P07225 42-676)
T1 construct: also called ProS; ProS1
T1 sequence: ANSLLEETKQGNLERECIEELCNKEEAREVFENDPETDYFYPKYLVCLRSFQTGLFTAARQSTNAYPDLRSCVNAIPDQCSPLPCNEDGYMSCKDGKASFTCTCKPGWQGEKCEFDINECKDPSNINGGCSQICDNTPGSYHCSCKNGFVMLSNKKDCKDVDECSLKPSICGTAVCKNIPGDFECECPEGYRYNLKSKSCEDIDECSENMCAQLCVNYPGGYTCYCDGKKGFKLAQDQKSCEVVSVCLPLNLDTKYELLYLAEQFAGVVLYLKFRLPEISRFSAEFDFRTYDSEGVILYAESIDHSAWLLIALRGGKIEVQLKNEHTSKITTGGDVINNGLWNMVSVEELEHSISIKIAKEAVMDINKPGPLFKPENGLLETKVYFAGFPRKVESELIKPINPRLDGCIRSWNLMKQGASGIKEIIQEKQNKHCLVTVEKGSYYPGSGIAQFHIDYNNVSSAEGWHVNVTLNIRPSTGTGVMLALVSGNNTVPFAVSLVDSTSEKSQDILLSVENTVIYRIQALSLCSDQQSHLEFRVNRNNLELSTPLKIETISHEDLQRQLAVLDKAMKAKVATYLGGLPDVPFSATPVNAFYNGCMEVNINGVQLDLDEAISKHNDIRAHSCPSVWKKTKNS
Assay: SPR Biacore X100; antibody captured by anti-human IgG (Fc); Protein S 2-128 nM; 5 mM CaCl2; 1:1 fit

{"Binder": "Antibody 2 (antibody, V domains shown, Same variable regions as Antibody 14) VH: QVQLQESGPGLVKPSQTLSLTCTVSGGSITSDGYHWSWIRQYPGKGLDWIGYIYYTGNTYYNPSLKSRVTISVGTSQNQFSLKLISVTAADTAVYYCARRLSTGPYFDYWGQGTLVTVSS VL: QSALTQPASVSGSPGQSITISCTGTSSDVGGYEFVSWYQHHPGKAPKLMIYDVSSRPSGVSNRFSGSKSGNTASLTISGLQAEDEADYYCSSYTRSSTVVFGGGARLTVL", "Result": "0.00056 s⁻¹"}
{"Binder": "Antibody 4 (antibody, V domains shown, Same variable regions as Antibody 16) VH: QVQLVESGGGVVQPGRSLRLSCAASGFTFSTYGFHWVRQPPGKGLEWVAVIYYDGINKYYADSVKGRFTISRDNSKNTLFLQMNSLRAEDTAVYYCAESDLDYWGQGTLVTVSS VL: EIVLTQSPATLSLSPGERATLSCRASQSVSIYLAWYQQKPGQAPRLLIYDASNRATGIPARFSGSGSGTDFTLTISSLEPEDFAVYYCQQRSNWPLTFGPGTKVDIK", "Result": "0.00165 s⁻¹"}
{"Binder": "Antibody 1 (antibody, V domains shown, Same variable regions as Antibody 13) VH: QVQLVQSGAEVKKPGSSVKVSCKVSGGTFSSYSISWVRQAPGQGLEWMGGIIPIFGTTNYAQKFQGRVTITADESTSTAYMDLSSLKSEDTAMYYCEGGRVGADFDYWGQGTLVTVSS VL: SSDLTQGPAVSVALGQTVRITCQGDSLRNYYASWYQQKPGQAPVPVIYGKNDRPSGIPDRFSGSISGNTASLTITGAQAEDEAHYYCNSRDSSGNHVVFGGGTKLTVL", "Result": "0.00039 s⁻¹"}

koff reading for Antibody 8 (antibody, V domains shown, Same variable regions as Antibody 20) VH: QVQLQESGPGLVKPSETLSLTCAVSGYSISSGYYWGWIRQPPGKGLDWIGSIYYSGSTYYNPSLKSRVTISVDTSKNQISLKLSSVTAADTAVYYCATTYSDIVTGYYNDAFDIWGQGTMVTVSS VL: EIVMTQSPATLSVSPGERATLSCRASQRINSNLAWYQQKPGQAPRLLIYGASTRATGIPARFSGSGSGTEFTLTISSLQSEDFAAYYCQQYDNWPLTFGGGTKVEIK : 0.000823 s⁻¹
